- method_description: Acute toxicity, single dose LD50
- Format: in vivo, dd mice
- reported_conditions: ip, 30 days observation, copper-chelated form unless otherwise stated
Entries whose LD50 single dose is below 30 mg/kg/day take yes (1); entries at or above 30 mg/kg/day take no (0).

molecule="Cc1c(N)nc(C(CC(N)=O)NCC(N)C(N)=O)nc1C(=O)NC(C(=O)NC(C)C(O)CC(=O)NC(C(=O)NC(OC1OC(C)C(N)C(O)C1O)C(O)c1nc(-c2nc(C(=O)NCCCNCCCCN)cs2)cs1)C(C)O)C(OC1OC(CO)C(O)C(O)C1OC1OC(CO)C(O)C(OC(N)=O)C1O)c1c[nH]cn1 (stereo not drawn) [Tallysomycin B (Cu-free), reference compound]" classification="no (0)"
molecule="Cc1c(N)nc(C(CC(N)=O)NCC(N)C(N)=O)nc1C(=O)NC(C(=O)NC(C)C(O)CC(=O)NC(C(=O)NC(OC1OC(C)C(N)C(O)C1O)C(O)c1nc(-c2nc(C(=O)NCCCC(N)CC(=O)NCCCN(CCO)CCO)cs2)cs1)C(C)O)C(OC1OC(CO)C(O)C(O)C1OC1OC(CO)C(O)C(OC(N)=O)C1O)c1c[nH]cn1 (stereo not drawn) [Tallysomycin S8a]" classification="no (0)"
molecule="CNCCCNC(=O)c1csc(-c2csc(C(O)C(NC(=O)C(NC(=O)CC(O)C(C)NC(=O)C(NC(=O)c3nc(C(CC(N)=O)NCC(N)C(N)=O)nc(N)c3C)C(OC3OC(CO)C(O)C(O)C3OC3OC(CO)C(O)C(OC(N)=O)C3O)c3c[nH]cn3)C(C)O)OC3OC(C)C(N)C(O)C3O)n2)n1 (stereo not drawn) [Tallysomycin S11b]" classification="yes (1)"
molecule="Cc1c(N)nc(C(CC(N)=O)NCC(N)C(N)=O)nc1C(=O)NC(C(=O)NC(C)C(O)CC(=O)NC(C(=O)NC(OC1OC(C)C(N)C(O)C1O)C(O)c1nc(-c2nc(C(=O)NCCC[S+](C)C)cs2)cs1)C(C)O)C(OC1OC(CO)C(O)C(O)C1OC1OC(CO)C(O)C(OC(N)=O)C1O)c1cnc[nH]1.Cl.Cl.Cl.[Cl-] (stereo not drawn) [Tallysomycin S2b]" classification="no (0)"
molecule="Cc1c(N)nc(C(CC(N)=O)NCC(N)C(N)=O)nc1C(=O)NC(C(=O)NC(C)C(O)CC(=O)NC(C(=O)NC(OC1OC(C)C(N)C(O)C1O)C(O)c1nc(-c2nc(C(=O)NCCCN)cs2)cs1)C(C)O)C(OC1OC(CO)C(O)C(O)C1OC1OC(CO)C(O)C(OC(N)=O)C1O)c1c[nH]cn1 (stereo not drawn) [Tallysomycin S1b]" classification="yes (1)"
molecule="Cc1c(N)nc(C(CC(N)=O)NCC(N)C(N)=O)nc1C(=O)NC(C(=O)NC(C)C(O)CC(=O)NC(C(=O)NC(OC1OC(C)C(N)C(O)C1O)C(O)c1nc(-c2nc(C(=O)NCCCC(N)CC(=O)NCCCN)cs2)cs1)C(C)O)C(OC1OC(CO)C(O)C(O)C1OC1OC(CO)C(O)C(OC(N)=O)C1O)c1c[nH]cn1 (stereo not drawn) [Tallysomycin S1a]" classification="yes (1)"
